target: purified recombinant Cdc25-C enzyme (MBP-Cdc25C protein) (Homo sapiens); test: Phosphatase activity of the purified recombinant Cdc25C enzyme (OMFP dephosphorylation, fluorescence); settings: OMFP 500 μM, 4 hours at 30° C.
I'd appreciate it if you could supply IC50 values for the items below.

CN(CCNC(=S)Nc1ccc(F)cc1F)CCNc1cc(N2CCCC2)nc(N2CCCC2)n1 [Example 40] : ≤ 1 µM
CN(CCNC(=S)Nc1ccc(OC(F)(F)F)cc1)CCNc1cc(N2CCCC2)nc(N2CCCC2)n1 [Example 23] : ≤ 5 µM
CN(CCNC(=S)Nc1ccc(-c2cnco2)cc1)CCNc1cc(N2CCCC2)nc(N2CCCC2)n1 [Example 33] : ≤ 5 µM
CN(CCNC(=S)Nc1ccc(S(=O)(=O)c2ccc(Br)cc2)cc1)CCNc1cc(N2CCCC2)nc(N2CCCC2)n1 [Example 60] : ≤ 1 µM
CN(CCNC(=S)Nc1ccc(C#N)cc1)CCNc1cc(N2CCCC2)nc(N2CCCC2)n1 [Example 77] : ≤ 1 µM
COc1ccc(NC(=S)NCCN(C)CCNc2cc(N3CCCC3)nc(N3CCCC3)n2)cc1 [Example 35] : ≤ 5 µM

Would you mind listing IC50 for each of the following compounds?
1. CN(CCN)CCNc1cc(N2CCCC2)nc(N2CCCC2)n1 [Example 1]
2. COc1ccc(C(=O)NC(=S)NCCN(C)CCNc2cc(N3CCCC3)nc(N3CCCC3)n2)cc1 [Example 80]

stdout:
1. ≤ 5 µM
2. ≤ 5 µM

* * *

I'd appreciate it if you could supply melting point values for the items below.

Worked examples follow.
CN(CCNC(=S)Nc1ccc(Cl)cc1)CCNc1cc(N2CCC2)nc(N2CCC2)n1 [Example 75] : 146 to 148 °C
CN(CCNC(=S)Nc1ccc(F)cc1F)CCNc1cc(N2CCCC2)nc(N2CCCC2)n1 [Example 40] : 124 to 126 °C
CN(CCNC(=S)Nc1ccc(OC(F)(F)F)cc1)CCNc1cc(N2CCCC2)nc(N2CCCC2)n1 [Example 23] : 118 to 120 °C
CN(CCNC(=S)Nc1cccnc1)CCNc1cc(N2CCCC2)nc(N2CCCC2)n1 [Example 26] : 107 to 109 °C

Would you mind listing melting point for each of the following compounds?
1. CN(CCNC(=S)Nc1ccc(C(F)(F)F)cc1)CCNc1cc(N2CCCC2)nc(N2CCCC2)n1 [Example 25]
2. Cc1cc(C)nc(NS(=O)(=O)c2ccc(NC(=S)NCCN(C)CCNc3cc(N4CCCC4)nc(N4CCCC4)n3)cc2)n1 [Example 50]
3. CN(CCNC(=O)Nc1cccs1)CCNc1cc(N2CCCC2)nc(N2CCCC2)n1 [Example 10]
4. CN(CCNC(=NC#N)Nc1ccc(Cl)cc1)CCNc1cc(N2CCCC2)nc(N2CCCC2)n1 [Example 81]
5. CNS(=O)(=O)c1ccc(NC(=S)NCCN(C)CCNc2cc(N3CCCC3)nc(N3CCCC3)n2)cc1 [Example 59]

stdout:
1: 87 to 89 °C; 2: 129 °C; 3: 133 to 135 °C; 4: 120 to 122 °C; 5: 102 to 104 °C

Would you mind listing melting point for each of the following compounds?
1. CN(CCNC(=O)c1ccc(C(=O)c2ccccc2)cc1)CCNc1cc(N2CCCC2)nc(N2CCCC2)n1 [Example 83]
2. CN(CCNC(=S)Nc1ccc(Cl)c(C(F)(F)F)c1)CCNc1cc(N2CCCC2)nc(N2CCCC2)n1 [Example 54]
3. CN(CCNC(=S)Nc1ccc(F)cc1)CCNc1cc(N2CCCC2)nc(N2CCCC2)n1 [Example 24]

stdout:
["119 to 121 °C", "117 to 119 °C", "115 to 117 °C"]

Would you mind listing melting point for each of the following compounds?
1. CN(CCNC(=O)Nc1cccc2nsnc12)CCNc1cc(N2CCCC2)nc(N2CCCC2)n1 [Example 15]
2. CN(CCNC(=S)Nc1ccc(S(=O)(=O)N2CCCCC2)cc1)CCNc1cc(N2CCCC2)nc(N2CCCC2)n1 [Example 27]
3. CN(CCNC(=O)NCc1ccco1)CCNc1cc(N2CCCC2)nc(N2CCCC2)n1 [Example 14]
4. CN(CCNC(=S)Nc1ccccc1F)CCNc1cc(N2CCCC2)nc(N2CCCC2)n1 [Example 42]

stdout:
["126 to 128 °C", "120 to 122 °C", "103 to 105 °C", "105 to 107 °C"]

Would you mind listing melting point for each of the following compounds?
1. CN(CCNC(=S)Nc1ccc(Sc2ncc(C(F)(F)F)cc2Cl)cc1)CCNc1cc(N2CCCC2)nc(N2CCCC2)n1 [Example 52]
2. Cc1noc(C)c1NC(=O)NCCN(C)CCNc1cc(N2CCCC2)nc(N2CCCC2)n1 [Example 13]
3. CN(CCNC(=S)NCC1CCCO1)CCNc1cc(N2CCCC2)nc(N2CCCC2)n1 (centres unmarked) [Example 31]
4. CN(CCNC(=S)Nc1cccc2ccccc12)CCNc1cc(N2CCCC2)nc(N2CCCC2)n1 [Example 37]

stdout:
97 to 99 °C
95 to 97 °C
120 to 122 °C
87 to 89 °C

Would you mind listing melting point for each of the following compounds?
1. CN(CCNC(=O)Nc1ccc(Cl)cc1)CCNc1cc(N2CCCC2)nc(N2CCCC2)n1 [Example 16]
2. CN(CCNc1cc(N2CCCC2)nc(N2CCCC2)n1)CCNS(=O)(=O)c1cccc(C(F)(F)F)c1 [Example 88]

stdout:
1. 71 to 73 °C
2. 203 to 205 °C

Would you mind listing melting point for each of the following compounds?
1. CN(CCNC(=S)Nc1ccc(S(=O)(=O)c2ccc(Br)cc2)cc1)CCNc1cc(N2CCCC2)nc(N2CCCC2)n1 [Example 60]
2. CN(CCNC(=S)Nc1ccc(-c2cnco2)cc1)CCNc1cc(N2CCCC2)nc(N2CCCC2)n1 [Example 33]
3. FC(F)(F)c1cc(NC(=S)NCCCCCNc2cc(N3CCCC3)nc(N3CCCC3)n2)ccc1Cl [Example 57]
4. O=C(NCCCCCNc1cc(N2CCCC2)nc(N2CCCC2)n1)Nc1ccc(Cl)cc1 [Example 19]
5. CN(CCNC(=S)Nc1ccc(Cl)cc1)CCNc1cc(N(C)C)nc(N(C)C)n1 [Example 73]

stdout:
118 to 120 °C
104 to 106 °C
85 to 87 °C
192 to 193 °C
127 to 129 °C

Would you mind listing melting point for each of the following compounds?
1. CN(CCNC(=S)Nc1ccc(Cl)cc1)CCNc1cc(N2CCCC2)nc(N2CCCC2)n1 [Example 22]
2. CN(CCNC(=S)Nc1ccc(F)c(F)c1)CCNc1cc(N2CCCC2)nc(N2CCCC2)n1 [Example 67]
3. CN(CCNC(=S)Nc1c(F)c(F)c(F)c(F)c1F)CCNc1cc(N2CCCC2)nc(N2CCCC2)n1 [Example 34]
4. CN(CCNC(=S)Nc1ccc(Cl)c(Cl)c1)CCNc1cc(N2CCCC2)nc(N2CCCC2)n1 [Example 55]
5. CN(CCNC(=O)c1cnc2ccccc2n1)CCNc1cc(N2CCCC2)nc(N2CCCC2)n1 [Example 82]

stdout:
127 to 129 °C
133 to 135 °C
92 to 94 °C
148 to 150 °C
146 to 148 °C

* * *

Molecular target: purified recombinant Cdc25-C enzyme (MBP-Cdc25C protein) (Homo sapiens, UniProt P30307)
Sequence (P30307 1-473): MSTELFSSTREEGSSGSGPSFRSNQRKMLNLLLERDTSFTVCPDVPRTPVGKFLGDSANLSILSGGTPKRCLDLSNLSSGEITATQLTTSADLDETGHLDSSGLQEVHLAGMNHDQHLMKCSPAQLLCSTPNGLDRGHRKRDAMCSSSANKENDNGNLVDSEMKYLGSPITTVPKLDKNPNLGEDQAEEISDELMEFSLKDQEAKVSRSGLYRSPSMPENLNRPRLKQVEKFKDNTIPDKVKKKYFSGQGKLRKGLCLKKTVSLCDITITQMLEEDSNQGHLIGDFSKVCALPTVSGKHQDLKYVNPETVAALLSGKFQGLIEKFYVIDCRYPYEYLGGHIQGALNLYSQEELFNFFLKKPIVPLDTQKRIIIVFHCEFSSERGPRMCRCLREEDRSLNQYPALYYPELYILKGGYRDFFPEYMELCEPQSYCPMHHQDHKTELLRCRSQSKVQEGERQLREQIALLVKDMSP
Assay: Phosphatase activity of the purified recombinant Cdc25C enzyme (OMFP dephosphorylation, fluorescence)
Conditions: OMFP 500 μM, 4 hours at 30° C.
pIC50: −log10 of the molar value.
Quantity: pIC50

CN(C)CCN(C)c1cc(NCCN(C)CCNC(=S)Nc2ccc(Cl)cc2)nc(N(C)CCN(C)C)n1 : ≥ 5.30

Would you mind listing pIC50 for each of the following molecules?
1. CN(CCNC(=S)Nc1ccc(Cl)c(F)c1)CCNc1cc(N2CCCC2)nc(N2CCCC2)n1
2. NCCCCCNc1cc(N2CCCC2)nc(N2CCCC2)n1
3. CN(CCNC(=S)Nc1cccnc1)CCNc1cc(N2CCCC2)nc(N2CCCC2)n1
4. CN(CCNC(=S)Nc1ccc(F)cc1)CCNc1cc(N2CCCC2)nc(N2CCCC2)n1

stdout:
["≥ 5.30", "≥ 5.30", "≥ 6.00", "≥ 5.30"]

Would you mind listing pIC50 for each of the following molecules?
1. CN(CCNC(=S)Nc1ccc(Sc2ncc(C(F)(F)F)cc2Cl)cc1)CCNc1cc(N2CCCC2)nc(N2CCCC2)n1
2. CN(CCNC(=S)Nc1ccccc1F)CCNc1cc(N2CCCC2)nc(N2CCCC2)n1
3. CN(CCNC(=S)Nc1ccc(Oc2ccc([N+](=O)[O-])cc2)cc1)CCNc1cc(N2CCCC2)nc(N2CCCC2)n1
4. CN(CCNC(=NC#N)Nc1ccc(Cl)cc1)CCNc1cc(N2CCCC2)nc(N2CCCC2)n1
5. CN(CCNC(=O)c1cccc2c1-c1ccccc1C2=O)CCNc1cc(N2CCCC2)nc(N2CCCC2)n1
6. CCN(CC)CCCCCNc1cc(N2CCCC2)nc(N2CCCC2)n1
7. CN(CCNC(=S)Nc1ccc(N2CCOCC2)nc1)CCNc1cc(N2CCCC2)nc(N2CCCC2)n1

stdout:
≥ 6.00
≥ 5.30
≥ 5.30
≥ 6.00
≥ 5.30
≥ 5.30
≥ 5.30

Would you mind listing pIC50 for each of the following molecules?
1. CN(C)CCCCCNc1cc(N2CCCC2)nc(N2CCCC2)n1
2. CN(CCNC(=S)Nc1ccc(Oc2ccccc2)nc1)CCNc1cc(N2CCCC2)nc(N2CCCC2)n1

stdout:
1: ≥ 5.30; 2: ≥ 5.30

Would you mind listing pIC50 for each of the following molecules?
1. CN(CCNC(=S)Nc1cccnc1Oc1ccc(F)cc1F)CCNc1cc(N2CCCC2)nc(N2CCCC2)n1
2. CN(CCNC(=O)NCc1ccco1)CCNc1cc(N2CCCC2)nc(N2CCCC2)n1
3. CC(Oc1ccccc1)C(=O)NCCN(C)CCNc1cc(N2CCCC2)nc(N2CCCC2)n1 (centres unmarked)

stdout:
["≥ 6.00", "≥ 6.00", "≥ 5.30"]
